Data credit: patent US20130244938A1

# pIC50 per entry
Biological target: T1, LGR7 (leucine-rich repeat-containing GPCR 7) (human, UniProt Q9HBX9 1-757)
T1 construct: whole, on cells; The methods say only 'recombinant LGR7' stably expressed in HEK293T cells; also called RFXR1; recombinant LGR7
T1 sequence (looked up): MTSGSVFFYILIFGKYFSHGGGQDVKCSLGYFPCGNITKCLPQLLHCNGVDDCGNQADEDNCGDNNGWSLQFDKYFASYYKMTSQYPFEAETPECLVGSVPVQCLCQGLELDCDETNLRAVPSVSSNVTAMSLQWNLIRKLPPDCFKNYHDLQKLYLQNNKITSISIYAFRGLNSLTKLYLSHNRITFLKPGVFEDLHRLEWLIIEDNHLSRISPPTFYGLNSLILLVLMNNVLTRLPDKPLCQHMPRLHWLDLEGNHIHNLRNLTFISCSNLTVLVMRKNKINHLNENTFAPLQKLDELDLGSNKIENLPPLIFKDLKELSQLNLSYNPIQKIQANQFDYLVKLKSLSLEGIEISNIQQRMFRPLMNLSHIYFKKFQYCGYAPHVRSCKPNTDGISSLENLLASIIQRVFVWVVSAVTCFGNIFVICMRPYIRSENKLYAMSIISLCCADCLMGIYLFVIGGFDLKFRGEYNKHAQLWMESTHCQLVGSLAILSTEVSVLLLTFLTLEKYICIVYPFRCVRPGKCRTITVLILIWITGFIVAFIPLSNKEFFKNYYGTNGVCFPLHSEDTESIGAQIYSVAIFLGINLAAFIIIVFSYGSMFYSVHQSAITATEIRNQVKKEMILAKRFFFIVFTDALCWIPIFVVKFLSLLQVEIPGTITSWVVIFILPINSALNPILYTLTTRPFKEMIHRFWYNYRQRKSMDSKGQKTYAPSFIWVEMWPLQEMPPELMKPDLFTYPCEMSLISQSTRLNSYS
Experiment: competition with 125I-RLN2 tracer on LGR7-expressing HEK293T cells
Experimental: To determine the binding characteristics of wild type and mutant peptides, HEK293T cells expressing LGR7 or LGR8 were grown to 90% confluence, collected by centrifugation at 3000×g for 2 min, and washed two times in 2 ml of ice-cold binding buffer. […] After washing three times in an ice-cold binding buffer, radioactivity bound to the cells was measured using a y-counter (EG&G Wallace, Gaithersburg, Md.). […]
// no unit, no text: just the number

The following binders have reported results that may help.
{"binder": "RLN2 R^A18A (ligand, not shown: small tags and cut ends) chain 1: SWMEEVIKLCGRELVRAQIAICGMSTWSHHHHHH chain 2: QLYSALANKCCHVGCTKASLARFC", "reported_metric": "pIC50", "readout_value": 8.42}
{"binder": "RLN2^A22-23 (ligand, not shown: small tags and cut ends, It is read here as both residues changed to alanine) chain 1: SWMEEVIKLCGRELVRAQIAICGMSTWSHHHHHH chain 2: QLYSALANKCCHVGCTKRSLAAAC", "reported_metric": "pIC50", "readout_value": 7.5}

--- query ---
RLN2^A19-20 (ligand, not shown: small tags and cut ends, It is read here as both residues changed to alanine) chain 1: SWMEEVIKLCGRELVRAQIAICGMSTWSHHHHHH chain 2: QLYSALANKCCHVGCTKRAAARFC yielded pIC50 of 8.21
